Tested on: Jurkat cells
ASSAY: Tacrolimus dose response of FKBP13-AcGFP-mCherry constructs stably transduced into Jurkat cells, GFP MFI by flow cytometry
Assay type: cell-based
PARTICULARS: tacrolimus; FIG. 36
Please provide measured Peak for the entries that follow.

Prompt: Request the reported Peak associated with FKBP-283: FKBP13 DRD-AcGFP construct of Table 10 (protein, Description of sequence: Construct Name: FKBP-283; Mutation(s): Q72R Q74W Q84E A117W V85R K135Y) HCPIKSRKGDVLHMHYTGKLEDGTEFDSSLPRNWPFVFSLGTGERIKGWDQGLLGMCEGEKRKLVIPSELGYGERGWPPKIPGGATLVFEVELLYIER
Completion: 1328

Provide each entry's Peak from the list below.
1. FKBP-195: combinatorial FKBP13 mutant construct of Table 10, carries K135Y (protein, Description of sequence: Construct Name: FKBP-195; Mutation(s): Q72R Q84E A117W V85R DRD K135Y) HCPIKSRKGDVLHMHYTGKLEDGTEFDSSLPRNQPFVFSLGTGERIKGWDQGLLGMCEGEKRKLVIPSELGYGERGWPPKIPGGATLVFEVELLYIER
2. FKBP-282: FKBP13 DRD-AcGFP construct of Table 10 (protein, Description of sequence: Construct Name: FKBP-282; Mutation(s): Q72R Q74W Q84E A117W V85R) HCPIKSRKGDVLHMHYTGKLEDGTEFDSSLPRNWPFVFSLGTGERIKGWDQGLLGMCEGEKRKLVIPSELGYGERGWPPKIPGGATLVFEVELLKIER

Completion:
1. 4362
2. 2473

Provide each entry's Peak from the list below.
1. FKBP-281: FKBP13 DRD-AcGFP construct of Table 10 (protein, Description of sequence: Construct Name: FKBP-281; Mutation(s): Q72R Q74R Q84E A117W V85R E130F K120I) HCPIKSRKGDVLHMHYTGKLEDGTEFDSSLPRNRPFVFSLGTGERIKGWDQGLLGMCEGEKRKLVIPSELGYGERGWPPIIPGGATLVFFVELLKIER
2. FKBP-280: FKBP13 DRD-AcGFP construct of Table 10 (protein, Description of sequence: Construct Name: FKBP-280; Mutation(s): Q72R Q74R Q84E A117W V85R K135Y K120I) HCPIKSRKGDVLHMHYTGKLEDGTEFDSSLPRNRPFVFSLGTGERIKGWDQGLLGMCEGEKRKLVIPSELGYGERGWPPIIPGGATLVFEVELLYIER
3. FKBP-117: FKBP13 DRD Q72R, Q84E, A117W, V85R; SEQ ID NO: 67 (protein, Description of sequence: FKBP13-AcGFP-mCherry Fusion; Construct Name: FKBP-117; FKBP13 DRD in Construct : FKBP13 (mutated to match FKBP12 active site Q72R Q84E A117W) (DRD V85R)) HCPIKSRKGDVLHMHYTGKLEDGTEFDSSLPRNQPFVFSLGTGERIKGWDQGLLGMCEGEKRKLVIPSELGYGERGWPPKIPGGATLVFEVELLKIER

Completion:
2905
2468
5193

Prompt: Request the reported Peak associated with FKBP-251: combinatorial FKBP13 mutant construct of Table 10 (protein, Description of sequence: Construct Name: FKBP-251; Mutation(s): Q72R Q84E A117W V85R DRD E130F) HCPIKSRKGDVLHMHYTGKLEDGTEFDSSLPRNQPFVFSLGTGERIKGWDQGLLGMCEGEKRKLVIPSELGYGERGWPPKIPGGATLVFFVELLKIER
Completion: 5078
